Each entry below lists one item and its recorded T/C value.
- Tested on: L1210 leukemia ip in BDF1 mice, survival T/C
- test_details: NCI In Vivo Anticancer Drug Screen. Data for tumor model L1210 Leukemia (intraperitoneal) in B6D2F1 (BDF1) mice
- condition_set: endpoint: mean survival time; dose: 100.0 mg/kg/injection; schedule: Q04DX003 (ip); vehicle: Klucel (hydroxypropylcellulose) (HPC); higher = longer survival
- Experimental: The antitumor activity of compounds was measured in mice bearing transplantable tumors. Survival or tumor size were measured and the results are expressed as the measurement made in the treated group (T) divided by the measurement made in the vehicle treated control group (C). The tumor model used in this assay is L1210 Leukemia (intraperitoneal) in B6D2F1 (BDF1) mice
Toxic doses and inconclusive results are not listed.

Known T/C results, listed for orientation:
Prompt: Checklist item: T/C tested on L1210 leukemia ip in BDF1 mice, survival T/C, entry COC1OC(CN(CCOS(C)(=O)=O)S(C)(=O)=O)C2OC(C)(C)OC12 (configuration not stated) , value?
Completion: 102 % of control

Prompt: Similarly, C=C(C)C1CC=C(C=O)CC1 (configuration not stated) ?
Completion: 101 % of control

Prompt: What do you get for Cc1c(Cl)cccc1NC(=O)c1ccc(Cl)c(Cl)c1 ?
Completion: 103 % of control

Prompt: Would you kindly repeat that for O=C(Nc1ccc(F)c([N+](=O)[O-])c1)Nc1cc([N+](=O)[O-])ccc1F ?
Completion: 96 % of control

Prompt: Another: Cc1ccc(S(=O)(=O)ON=C2c3ccccc3-c3ccccc32)cc1
Completion: 98 % of control

Further cases:
Prompt: // map COc1ccc(NC(=O)O/N=C2\CN(S(=O)(=O)c3ccc(C)cc3)CCc3ccccc32)cc1 to recorded T/C (system: L1210 leukemia ip in BDF1 mice, survival T/C)
Completion: 91 % of control

Prompt: Another molecule: O=C(N/N=C/c1ccc(Cl)cc1Cl)c1ccccc1
Completion: 101 % of control

Prompt: Now consider CCOC(=O)C1(C(=O)OCC)CCC2Nc3ccccc3C(=O)N21 (configuration not stated) .
Completion: 101 % of control

Prompt: And the next one, CCc1nc(N)nc(-c2ccccc2)c1-c1ccc([N+](=O)[O-])cc1O ?
Completion: 98 % of control

Prompt: Record: CC(=O)Nc1cc(Cl)cc2c1-c1c(Cl)cc(Cl)cc1C2
Completion: 92 % of control

Prompt: Then COc1ccccc1NC(=O)OCC#CCOC(=O)Nc1ccccc1OC ?
Completion: 91 % of control

Prompt: Now try NC(=S)N/N=C1/c2ccccc2-c2cc(Br)ccc21 .
Completion: 97 % of control

Prompt: Do the same for Cc1cc(=O)[nH]c(N/N=C2/CCCCC2C)n1 (configuration not stated) please
Completion: 100 % of control

Prompt: What about this molecule? CN(C)c1ccc(C(C#N)(c2ccc(N(C)C)cc2)c2ccc(N(C)C)cc2)cc1
Completion: 103 % of control

Prompt: Repeat for the following molecule: Cc1c([N+](=O)[O-])c(C)c([N+](=O)[O-])c(C(C)(C)C)c1[N+](=O)[O-]
Completion: 92 % of control

Prompt: Field entry: Cc1ccc(S(=O)(=O)CCCl)cc1
Completion: 96 % of control

Prompt: Item: Cc1ccc(NCc2ccc(N(C)C)cc2)cc1
Completion: 99 % of control

Prompt: Thanks! And Cc1ccc(S(=O)(=O)CC(=O)c2ccccc2)cc1 ?
Completion: 100 % of control

Prompt: # iterate: CCCCC(CC)C1OC(=O)C(C)O1 (configuration not stated)
Completion: 102 % of control

Prompt: Now consider CCCCNS(=O)(=O)c1ccc(N)cc1 and answer again.
Completion: 98 % of control

Prompt: Let us now turn to C#CC(O)C1OC(C)(C)OC1C1COC(C)(C)O1 (configuration not stated)
Completion: 97 % of control

Prompt: What would you report for CC1(C)C/C(=C\c2cccc(Cl)c2)C(=O)c2ccccc21 ?
Completion: 108 % of control

Prompt: Another molecule: CSc1nc(Cl)nc(SC)n1
Completion: 96 % of control

Prompt: How about this molecule: O=C1c2cccc(NCCO)c2C(=O)c2c(NCCO)cccc21
Completion: 94 % of control

Prompt: # repeat for COc1ccccc1-n1c(O)c(N=Nc2ccccc2)c(=O)n(-c2ccc(C)cc2)c1=S
Completion: 98 % of control

Prompt: Now consider CCCCCCCCCCCCCCCCN(C)c1ccc([N+](=O)[O-])cc1 .
Completion: 94 % of control

Prompt: Could you do the same for CS1(=O)=CC(=O)CC(c2ccccc2)C1 (configuration not stated) , please?
Completion: 106 % of control

Prompt: And then CCCCCCCCCCCCCCCC1=NN(c2ccc([N+](=O)[O-])cc2)C(=O)C1 , what is it?
Completion: 94 % of control

Prompt: And CC1(C)CN1C1=C(NC(=O)CCl)C(=O)c2ccccc2C1=O ?
Completion: 87 % of control
